We begin with a simple list: items and their reported Cmax.
# ASSAY METHOD TEXT: Cmax in Balb/c mouse at 10 mg/kg, po
# Assay type: ADME, organism-based
# Parameters: dose 10 mg/kg, route oral
# REPORTED CONDITIONS: in vivo
Form field: result (number plus unit)

Study these solved cases before continuing.
# STRUCTURE AS SMILES, MEASURE NAME, RESULT
measured = [
    ("O=C(O)[C@H]1CC[C@H](C(=O)N2CC[C@@]3(S(=O)(=O)c4ccccc4)c4ccc(C(F)(C(F)(F)F)C(F)(F)F)cc4CC[C@@H]23)CC1", "Cmax", "6.9 µM"),
    ("CN1C[C@H]2N(C(=O)[C@H]3CC[C@H](C(=O)O)CC3)CC[C@@]2(S(=O)(=O)c2ccc(F)cc2)c2ccc(C(F)(C(F)(F)F)C(F)(F)F)cc21", "Cmax", "10 µM"),
    ("O=C(O)[C@H]1CC[C@H](C(=O)N2CC[C@@]3(S(=O)(=O)c4ccc(F)cc4)c4ccc(C(F)(C(F)(F)F)C(F)(F)F)cc4CC[C@@H]23)CC1", "Cmax", "8.6 µM"),
]

Attention now turns to another entry.
Query: If you can, please state the reported Cmax value of O=C(O)C12CCC(C(=O)N3CC[C@@]4(S(=O)(=O)c5ccc(F)cc5)c5ccc(C(F)(C(F)(F)F)C(F)(F)F)cc5CC[C@@H]34)(CC1)CC2 .
Result: 9.3 µM

---

# ASSAY METHOD TEXT: Volume of distribution at steady state in rat at 2 mg/kg, iv
# Type: ADME, organism-based
# REPORTED CONDITIONS: in vivo, read-out: Vdss
MEASURE NAME: Vd (L/kg)
Express it in L/kg; write the number only.

Query: If you can, please state the reported Vd value of O=C(N1CC[C@@]2(S(=O)(=O)c3ccc(F)cc3)c3ccc(C(F)(C(F)(F)F)C(F)(F)F)cc3CC[C@@H]12)C1(O)CCS(=O)(=O)CC1 .
Result: 2.9

---

# ASSAY METHOD TEXT: Permeability across apical to basolateral side in human Caco2 cells
# Assay type: ADME, cell-based
# REPORTED CONDITIONS: Caco-2, read-out: permeability
MEASURE NAME: Papp A→B (×10⁻⁶ cm/s)
Express it in ×10⁻⁶ cm/s; write the number only.

Query: If you can, please state the reported Papp A→B value of O=C(N1CC[C@@]2(S(=O)(=O)c3ccc(F)cc3)c3ccc(C(F)(C(F)(F)F)C(F)(F)F)cc3CC[C@@H]12)C1(O)CCS(=O)(=O)CC1 .
Result: 13

---

# ASSAY METHOD TEXT: Unbound fraction in mouse serum
# Type: ADME, cell-free
MEASURE NAME: fraction unbound

Query: If you can, please state the reported fraction unbound value of O=C(N1CC[C@@]2(S(=O)(=O)c3ccc(F)cc3)c3ccc(C(F)(C(F)(F)F)C(F)(F)F)cc3CC[C@@H]12)C1(O)CCS(=O)(=O)CC1 .
Result: 0.007

---

# TESTED ON: Cytochrome P450 1A2 (Homo sapiens)
# Sequence (P05177 whole entry): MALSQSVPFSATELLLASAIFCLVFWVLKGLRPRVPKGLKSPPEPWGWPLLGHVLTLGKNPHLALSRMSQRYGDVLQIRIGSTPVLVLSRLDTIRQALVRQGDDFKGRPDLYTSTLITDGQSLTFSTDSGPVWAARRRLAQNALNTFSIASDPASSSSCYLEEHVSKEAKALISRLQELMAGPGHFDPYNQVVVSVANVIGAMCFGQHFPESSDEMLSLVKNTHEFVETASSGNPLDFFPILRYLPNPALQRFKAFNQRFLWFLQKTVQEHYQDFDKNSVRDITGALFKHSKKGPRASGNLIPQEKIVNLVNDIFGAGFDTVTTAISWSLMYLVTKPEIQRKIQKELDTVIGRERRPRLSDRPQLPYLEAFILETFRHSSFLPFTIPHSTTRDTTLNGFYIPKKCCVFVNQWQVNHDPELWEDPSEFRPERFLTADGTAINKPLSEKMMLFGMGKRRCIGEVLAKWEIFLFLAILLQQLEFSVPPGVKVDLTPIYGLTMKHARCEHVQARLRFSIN
# ASSAY METHOD TEXT: Inhibition of recombinant CYP1A2 (unknown origin)
pIC50: −log10 of the molar value.
MEASURE NAME: pIC50

Query: If you can, please state the reported pIC50 value of O=C(N1CC[C@@]2(S(=O)(=O)c3ccc(F)cc3)c3ccc(C(F)(C(F)(F)F)C(F)(F)F)cc3CC[C@@H]12)C1(O)CCS(=O)(=O)CC1 .
Result: < 4.70

---

# ASSAY METHOD TEXT: Cmax in mouse at 4 mg/kg, po
# Format: ADME, organism-based
# Parameters: dose 4 mg/kg, route oral
# REPORTED CONDITIONS: in vivo
MEASURE NAME: Cmax (nM)
Express it in nM; write the number only.

Query: If you can, please state the reported Cmax value of O=C(N1CC[C@@]2(S(=O)(=O)c3ccc(F)cc3)c3ccc(C(F)(C(F)(F)F)C(F)(F)F)cc3CC[C@@H]12)C1(O)CCS(=O)(=O)CC1 .
Result: 2200

---

# ASSAY METHOD TEXT: Half life in human liver microsomes
# Assay type: ADME, Microsome
MEASURE NAME: half-life

# STRUCTURE AS SMILES, RESULT
data = [
    ("O=C(O)[C@H]1CC[C@H](C(=O)N2CC[C@@]3(S(=O)(=O)c4ccccc4)c4ccc(C(F)(C(F)(F)F)C(F)(F)F)cc4CC[C@@H]23)CC1", "> 2 h"),
    ("Cc1ccc(S(=O)(=O)[C@@]23CCN(C(=O)[C@H]4CC[C@H](C(=O)O)CC4)[C@@H]2CCc2cc(C(F)(C(F)(F)F)C(F)(F)F)ccc23)cc1", "1.37 h"),
    ("CCCN1C[C@H]2N(C(=O)[C@H]3CC[C@H](C(=O)O)CC3)CC[C@@]2(S(=O)(=O)c2ccc(F)cc2)c2ccc(C(F)(C(F)(F)F)C(F)(F)F)cc21", "1.53 h"),
    ("Cc1cccc(S(=O)(=O)[C@@]23CCN(C(=O)[C@H]4CC[C@H](C(=O)O)CC4)[C@@H]2CCc2cc(C(F)(C(F)(F)F)C(F)(F)F)ccc23)c1", "> 2 h"),
    ("CN1C[C@H]2N(C(=O)[C@H]3CC[C@H](C(=O)O)CC3)CC[C@@]2(S(=O)(=O)c2ccc(F)cc2)c2ccc(C(F)(C(F)(F)F)C(F)(F)F)cc21", "> 2 h"),
]

Attention now turns to another entry.
Query: If you can, please state the reported half-life value of CC(=O)N1CCC(C(=O)N2CC[C@@]3(S(=O)(=O)c4ccc(F)cc4)c4ccc(C(F)(C(F)(F)F)C(F)(F)F)cc4CC[C@@H]23)CC1 .
Result: 0.35 h

---

# ASSAY METHOD TEXT: Drug level in Balb/c mouse at 10 mg/kg, po after 24 hrs
# Format: ADME, organism-based
# REPORTED CONDITIONS: in vivo, read-out: Drug uptake
So basically, if concentration at 24 h comes in under 700 nM it's TRUE, and if it's 700 nM or more it's FALSE.

Answered cases to consult:
# STRUCTURE AS SMILES, QUALITATIVE LABEL
measured = [
    ("O=C(N1CC[C@@]2(S(=O)(=O)c3ccc(F)cc3)c3ccc(C(F)(C(F)(F)F)C(F)(F)F)cc3CC[C@@H]12)C1(O)CCS(=O)(=O)CC1", "FALSE"),
    ("O=C(O)[C@H]1CC[C@](O)(C(=O)N2CC[C@@]3(S(=O)(=O)c4ccc(F)cc4)c4ccc(C(F)(C(F)(F)F)C(F)(F)F)cc4CC[C@@H]23)CC1", "TRUE"),
    ("CCN1C[C@H]2N(C(=O)[C@H]3CC[C@H](C(=O)O)CC3)CC[C@@]2(S(=O)(=O)c2ccc(F)cc2)c2ccc(C(F)(C(F)(F)F)C(F)(F)F)cc21", "FALSE"),
    ("O=C(O)[C@H]1CC[C@H](C(=O)N2CC[C@@]3(S(=O)(=O)c4ccccc4)c4ccc(C(F)(C(F)(F)F)C(F)(F)F)cc4CC[C@@H]23)CC1", "FALSE"),
    ("O=C(O)C12CCC(C(=O)N3CC[C@@]4(S(=O)(=O)c5ccc(F)cc5)c5ccc(C(F)(C(F)(F)F)C(F)(F)F)cc5CC[C@@H]34)(CC1)CC2", "FALSE"),
]

Turning now to a further compound:
Query: Identify whether the compound O=C(O)[C@H]1CC[C@H](C(=O)N2CC[C@@]3(S(=O)(=O)c4ccc(F)cc4)c4ccc(C(F)(C(F)(F)F)C(F)(F)F)cc4CC[C@@H]23)CC1 records concentration at 24 h below 700 nM.
Result: FALSE

---

# ASSAY METHOD TEXT: Total AUC in mouse at 4 mg/kg, po
# Type: ADME, organism-based
# Parameters: dose 4 mg/kg, route oral, time AUCmax
# REPORTED CONDITIONS: in vivo
MEASURE NAME: AUC (µM·h)
Express it in µM·h; write the number only.

Query: If you can, please state the reported AUC value of O=C(N1CC[C@@]2(S(=O)(=O)c3ccc(F)cc3)c3ccc(C(F)(C(F)(F)F)C(F)(F)F)cc3CC[C@@H]12)C1(O)CCS(=O)(=O)CC1 .
Result: 58.2

---

# TESTED ON: Nuclear receptor subfamily 1 group I member 2 (Homo sapiens)
# Sequence (O75469 whole entry, the tested form may be a part): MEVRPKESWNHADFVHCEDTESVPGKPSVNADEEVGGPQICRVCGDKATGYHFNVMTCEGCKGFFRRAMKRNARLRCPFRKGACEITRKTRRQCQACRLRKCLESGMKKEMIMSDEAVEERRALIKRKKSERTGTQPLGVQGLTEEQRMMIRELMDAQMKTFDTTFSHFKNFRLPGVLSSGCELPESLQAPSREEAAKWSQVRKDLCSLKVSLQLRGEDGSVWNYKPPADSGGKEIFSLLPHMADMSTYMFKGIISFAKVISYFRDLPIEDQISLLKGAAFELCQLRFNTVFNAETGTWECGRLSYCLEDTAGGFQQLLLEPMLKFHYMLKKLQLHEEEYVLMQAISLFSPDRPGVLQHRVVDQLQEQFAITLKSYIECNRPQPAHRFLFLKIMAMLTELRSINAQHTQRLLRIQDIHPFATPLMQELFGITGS
# ASSAY METHOD TEXT: Agonist activity at PXR (unknown origin) by Gal4-Luc reporter gene assay)
MEASURE NAME: EC50

Query: If you can, please state the reported EC50 value of O=C(N1CC[C@@]2(S(=O)(=O)c3ccc(F)cc3)c3ccc(C(F)(C(F)(F)F)C(F)(F)F)cc3CC[C@@H]12)C1(O)CCS(=O)(=O)CC1 .
Result: > 50 µM
